Below, each of the binders is paired with its reported neutralization IC50 value.
MEASURED_TARGET: HIV-1 Env of Q23.17 (HIV-1)
RUN_DESCRIPTION: cell-based or functional assay

BINDER	neutralization IC50
CAP256-VRC26.08 (antibody, V domains shown) VH: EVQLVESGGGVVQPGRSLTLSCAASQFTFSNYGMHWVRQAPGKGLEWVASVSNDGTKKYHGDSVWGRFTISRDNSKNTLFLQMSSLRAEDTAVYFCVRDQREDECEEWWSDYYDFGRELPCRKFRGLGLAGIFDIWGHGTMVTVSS VL: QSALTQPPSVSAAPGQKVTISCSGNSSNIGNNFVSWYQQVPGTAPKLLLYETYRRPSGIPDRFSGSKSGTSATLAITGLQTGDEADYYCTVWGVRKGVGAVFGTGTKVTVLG	13.3 µg/mL
CAP256-VRC26.02 (antibody, V domains shown) VH: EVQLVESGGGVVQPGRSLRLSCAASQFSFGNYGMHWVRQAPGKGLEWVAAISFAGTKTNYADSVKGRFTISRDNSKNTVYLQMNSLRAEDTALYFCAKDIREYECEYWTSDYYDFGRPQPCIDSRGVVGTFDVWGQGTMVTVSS VL: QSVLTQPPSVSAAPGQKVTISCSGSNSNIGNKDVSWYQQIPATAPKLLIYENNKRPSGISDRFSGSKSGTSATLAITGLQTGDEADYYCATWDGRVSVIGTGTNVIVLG	> 50 µg/mL
CAP256-VRC26.12 (antibody, V domains shown) VH: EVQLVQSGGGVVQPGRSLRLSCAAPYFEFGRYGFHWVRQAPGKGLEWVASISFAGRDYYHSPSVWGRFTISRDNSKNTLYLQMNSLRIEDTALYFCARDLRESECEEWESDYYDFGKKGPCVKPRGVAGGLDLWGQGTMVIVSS VL: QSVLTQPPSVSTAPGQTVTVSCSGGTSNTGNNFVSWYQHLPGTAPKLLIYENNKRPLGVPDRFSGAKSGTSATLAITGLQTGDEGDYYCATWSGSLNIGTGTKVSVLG	> 50 µg/mL
